# Test system: NCI-H226
# protocol-details: NCI tumour cell line growth inhibition, 48 h
Active and inactive are the calls of the source. No stated cut-off is given here; in the data, active = GI50 up to about 1.1 µM and inactive = higher.
assay-readout: GI50

INSERT INTO results (molecule, tested_target, result) VALUES
  ('C=CCOCn1cc(F)c(=O)[nH]c1=O', 'NCI-H226', '> 100 µM (inactive)'),
  ('O=C(OCc1c(-c2ccccc2)nn(-c2ccccc2)c1COC(=O)Oc1ccccc1)Oc1ccccc1', 'NCI-H226', '> 100 µM (inactive)'),
  ('CC1=CC(=O)c2c(O)cccc2C1=O', 'NCI-H226', '6.55 µM (inactive)'),
  ('O=C1Nc2ccccc2C1Cc1ccc([N+](=O)[O-])cc1 (configuration not stated)', 'NCI-H226', '> 100 µM (inactive)'),
  ('Cc1ccc(C(C)(C)C[P+](C)(c2ccccc2)c2ccccc2)cc1', 'NCI-H226', '15.6 µM (inactive)'),
  ('CC(=O)c1sc2[n+](c1C)C(=O)/C(=C\c1ccccc1Cl)S2', 'NCI-H226', '13.3 µM (inactive)'),
  ('NC(=O)c1sc2nc3ccccc3n2c1N', 'NCI-H226', '> 100 µM (inactive)'),
  ('CN(C)/C=N\c1cccc2cnccc12', 'NCI-H226', '> 100 µM (inactive)'),
  ('O=C(NCCc1ccccc1)C1C(=O)C(=O)N(CCc2ccccc2)C1=O (configuration not stated)', 'NCI-H226', '> 100 µM (inactive)'),
  ('CN1C(=O)C2C3C=C4c5ccccc5N(c5ccccc5)C4(C2C1=O)[C@H]1C(=O)N(C)C(=O)[C@@H]31 (some centres not stated)', 'NCI-H226', '> 100 µM (inactive)'),
  ('[N-]=[N+]=Nc1ccc2c(c1)Sc1ccccc1N2CCCCN1CCN(Cc2ccc(C(=O)c3ccccc3)cc2)CC1', 'NCI-H226', '20.4 µM (inactive)'),
  ('CC(O)C1(CNc2cc(Cl)nc(N)n2)CCCCC1 (configuration not stated)', 'NCI-H226', '> 100 µM (inactive)'),
  ('N#CC(C(=O)CCCC(=O)Nc1ccc(Cl)cc1Cl)c1ccc(Cl)cc1 (configuration not stated)', 'NCI-H226', '> 100 µM (inactive)'),
  ('O=c1c(C(c2ccc(Cl)cc2)c2c(O)c3ccccc3n(-c3ccccc3)c2=O)c(O)c2ccccc2n1-c1ccccc1', 'NCI-H226', '73.6 µM (inactive)'),
  ('S=C1C(CCCOCc2ccccc2)C2CCCC23CC2(CCN13)OCCS2 (configuration not stated)', 'NCI-H226', '> 10 µM (inactive)'),
  ('CC(C)NC(=O)OCc1c(COC(=O)NC(C)C)c(-c2cc[n+](COC(=O)C3CC3)cc2)n2c1CCC2', 'NCI-H226', '> 100 µM (inactive)'),
  ('CC1(C)CC(/C=C2/OC(=O)c3ccccc32)=C(C(N)=O)C(=O)O1', 'NCI-H226', '> 100 µM (inactive)'),
  ('N=C(CC/C(N)=N/O)NO', 'NCI-H226', '> 100 µM (inactive)'),
  ('C=CC1(C)OC2(CCN(C(=O)OCC)CC2)OC1C (configuration not stated)', 'NCI-H226', '> 100 µM (inactive)'),
  ('COc1ccc(C2OCCN2C)cc1 (configuration not stated)', 'NCI-H226', '> 100 µM (inactive)'),
  ('Nc1ccc2c3c1cccc3c(=O)n1c3ccc(Cc4ccc5c(c4)nc4c6ccc(N)c7cccc(c(=O)n54)c76)cc3nc21', 'NCI-H226', '> 100 µM (inactive)'),
  ('O=C(CSc1ncnc2[nH]cnc12)c1ccccc1', 'NCI-H226', '> 100 µM (inactive)');

Data provenance: ChEMBL document CHEMBL1201862
